For each of the binders below, state its kon.
Biological target: T1, recombinant human IL-23R/Fc chimera (R&D Systems) (human, UniProt Q5VWK5 24-355)
T1 construct: Bought; also called rhIL23RFc
T1 sequence (looked up): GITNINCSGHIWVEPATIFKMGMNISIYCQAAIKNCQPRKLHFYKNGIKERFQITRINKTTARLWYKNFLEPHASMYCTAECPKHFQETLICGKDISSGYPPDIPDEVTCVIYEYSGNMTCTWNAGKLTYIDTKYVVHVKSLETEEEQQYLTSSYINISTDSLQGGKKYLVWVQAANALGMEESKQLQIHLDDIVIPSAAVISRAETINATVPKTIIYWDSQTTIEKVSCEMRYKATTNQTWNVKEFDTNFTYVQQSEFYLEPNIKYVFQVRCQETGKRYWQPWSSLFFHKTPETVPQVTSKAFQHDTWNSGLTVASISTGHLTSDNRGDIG
Experiment: SPR
Note: unit M⁻¹ s⁻¹ is implicit; provide only the numeric part.

Sample 101-113-6C108 ATRIMER complex (designed binder, Forms a homotrimer through the tetranectin coiled coil; one protomer is given., not shown: C-terminal tag: His/Myc (pANA4) or HA-StrepII (pANA10)) EPPTQKPKKIVNAKKDVVNTKMFEELKSRLDTLAQEVALLKEQQALQTVCLKGTKVHMKCFLAFTQTKTFHEASEDCISRGGTLSTPQTGSENDALYEYLRQSVGNEAEIWLGLNGSALTNTWVDMTGARIAYKNWEPPPPHHPMGGFGVFGENCAVLSGAANGKWFDKRCRDQLPYICQFGIV — what was its kon?
623000

Sample 001-69.4E5 monomeric CTLD (designed binder, C-terminal tag not specified; not shown: Also the vector's N-terminal AGGGS after the pelB signal) ALQTVCLKGTKVHMKCFLAFTQTKTFHEASEDCISRGGTLSTPQTGSENDALYEYLRQSVGNEAEIWLGLNGNPSGSVWVDMTGARIAYKNWETEITAQPDGGYGVWGENCAVLSGAANGKWFDKRCRDQLPYICQFGIV — what was its kon?
45400

Sample 101-51-1A5 ATRIMER complex (designed binder, Forms a homotrimer through the tetranectin coiled coil; one protomer is given., not shown: C-terminal tag: His/Myc (pANA4) or HA-StrepII (pANA10)) EPPTQKPKKIVNAKKDVVNTKMFEELKSRLDTLAQEVALLKEQQALQTVCLKGTKVHMKCFLAFTQTKTFHEASEDCISRGGTLSTPQTGSENDALYEYLRQSVGNEAEIWLGLNGSALTNTWVDMTGARIAYKNWENGHEPQPRGGFGYFGENCAVLSGAANGKWFDKRCRDQLPYICQFGIV — what was its kon?
495000

Sample 056-45.F7F ATRIMER complex (designed binder, Homotrimer of this chain (ATRIMER complex)., not shown: A possible extra N-terminal Ser from the ompA junction is left out) EPPTQKPKKIVNAKKDVVNTKMFEELKSRLDTLAQEVALLKEQQALQTVCLKGTKVHMKCFLAFTQTKTFHEASEDCISRGGTLSTPQTGSENDALYEYLRQSVGNEAEIWLGLNGSATTDTWVDMTGARIAYKNWETEITAQPDGGFGYFGENCAVLSGAANGKWFDKRCRDQLPYICQFGIV — what was its kon?
298000

Sample 105-08-1A8 ATRIMER complex (designed binder) EPPTQKPKKIVNAKKDVVNTKMFEELKSRLDTLAQEVALLKEQQALQTVCLKGTKVHMKCFLAFTQTKTFHEASEDCISRGGTLSTPQTGSENDALYEYLRQSVGNEAEIWLGLNGSPRTNTWVDMTGARIAYKNWETEITAQPDGGFGVFGENCAVLSGAANGKWFDKRCRDQLPYICQFGIV — what was its kon?
737000

Sample 101-51-1A10 ATRIMER complex (designed binder, Forms a homotrimer through the tetranectin coiled coil; one protomer is given., not shown: C-terminal tag: His/Myc (pANA4) or HA-StrepII (pANA10)) EPPTQKPKKIVNAKKDVVNTKMFEELKSRLDTLAQEVALLKEQQALQTVCLKGTKVHMKCFLAFTQTKTFHEASEDCISRGGTLSTPQTGSENDALYEYLRQSVGNEAEIWLGLNGSALTNTWVDMTGARIAYKNWEHPLPPQPSGGFGYFGENCAVLSGAANGKWFDKRCRDQLPYICQFGIV — what was its kon?
167000
